# testSummary: Approximate solubility, visually estimated by solvent aliquot addition
# Type: physicochemical
# conditions: organic solvent or mixture, thermodynamic from solid; DCM; ambient temperature; lot containing mixture of Forms A and B; read-out: Solubility
recordedMetric: solubility (mg/mL)

>>> df
                                   molecule  quantityunit  number
0  Cn1c(Nc2ccc(I)cc2F)c(C(=O)NOCCO)c2cccnc21 [Compound of Formula (I)]         mg/mL       6

* * *

# testSummary: Approximate solubility, visually estimated by solvent aliquot addition
# Assay type: physicochemical
# conditions: organic solvent or mixture, thermodynamic from solid; acetone; ambient temperature; lot containing mixture of Forms A and B; read-out: Solubility
recordedMetric: solubility (µg/mL)

In [3]: df
Out[3]:
                                   molecule  recordedmetric  quantityunit  number
0  Cn1c(Nc2ccc(I)cc2F)c(C(=O)NOCCO)c2cccnc21 [Compound of Formula (I)]      solubility         µg/mL    8000

* * *

# testSummary: Approximate solubility, visually estimated by solvent aliquot addition
# Format: physicochemical
# conditions: organic solvent or mixture, thermodynamic from solid; EtOH; ambient temperature; lot containing mixture of Forms A and B; read-out: Solubility
recordedMetric: solubility (mg/mL)

In [3]: df
Out[3]:
                             compoundsmiles  recordedmetric  number
0  Cn1c(Nc2ccc(I)cc2F)c(C(=O)NOCCO)c2cccnc21      solubility       3

* * *

# testSummary: Approximate solubility, visually estimated by solvent aliquot addition
# Type: physicochemical
# conditions: organic solvent or mixture, thermodynamic from solid; EtOAc; ambient temperature; lot containing mixture of Forms A and B; read-out: Solubility
# Method: A lot of the compound of formula (I) containing a mixture of Forms A and B was used for this study. Measured aliquots of a variety of solvents were added to weighed amounts of the material with sonication until the solution appeared clear or the maximum volume of the vial was reached. Solubility was calculated based on the total solvent used to give a solution. […] If dissolution occurred as determined by the visual assessment after the addition of the first aliquot, the value is reported as “>”.
recordedMetric: solubility (µg/mL)

>>> df
                                   compound  recordedmetric  number
0  Cn1c(Nc2ccc(I)cc2F)c(C(=O)NOCCO)c2cccnc21 [Compound of Formula (I)]      solubility    3000

* * *

# testSummary: Approximate solubility, visually estimated by solvent aliquot addition
# Type: physicochemical
# conditions: organic solvent or mixture, thermodynamic from solid; ACN; ambient temperature; lot containing mixture of Forms A and B; read-out: Solubility
recordedMetric: solubility (µg/mL)

>>> print(df.to_string())
                                   molecule  recordedmetric  quantityunit  number
0  Cn1c(Nc2ccc(I)cc2F)c(C(=O)NOCCO)c2cccnc21 [Compound of Formula (I)]      solubility         µg/mL    2000

* * *

# testSummary: Approximate solubility, visually estimated by solvent aliquot addition
# Format: physicochemical
# conditions: aqueous with cosolvent or surfactant or cyclodextrin, thermodynamic from solid; 3:1 acetone/H2O (v/v) (aw = 0.85); ambient temperature; lot containing mixture of Forms A and B; read-out: Solubility
recordedMetric: solubility

                                   compound  recordedmetric      result
0  Cn1c(Nc2ccc(I)cc2F)c(C(=O)NOCCO)c2cccnc21 [Compound of Formula (I)]      solubility  5000 µg/mL
